- target.under.test: T1, 4H953-bH
- T1 chain: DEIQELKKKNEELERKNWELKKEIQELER
- procedure.details: two-hybrid library CCNG1;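 also: natural log of median RNA to DNA barcode read ratio; higher means stronger binding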
readout: interaction score

(P) DEIQELKKEIEELERKNWELKKKNQELER [4H575-bH]
(Q) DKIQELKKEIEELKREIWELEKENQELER [4H2627-bH]
When their interaction score values are compared, which is larger, P or Q ? Return value: the label identifying the chosen record.
P

(1) DEIAQLKQEIAELKQENAELKWKNAQLEQ [4H607-bA]
(2) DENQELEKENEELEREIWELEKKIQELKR [4H1158-bH]
When their interaction score values are compared, which is larger, 1 or 2 ? Return value: the label identifying the chosen record.
2
(2: 0.0112, 1: -1.41)

(1) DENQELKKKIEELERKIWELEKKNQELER [4H1831-bH]
(2) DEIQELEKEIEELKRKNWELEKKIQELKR [4H118-bH]
(3) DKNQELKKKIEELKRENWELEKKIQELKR [4H3926-bH]
Rank ascending by interaction score. Reply with the item labels sorted in the order that was asked for.
1, 2, 3
